Test system: SK-MEL-2 melanoma
Assay: NCI tumour cell line growth inhibition, 48 h; in the data active = GI50 below about 0.43 µM; inactive = the rest
Write down one outcome, taken from active, inactive

Some entries whose results are on file:
Oc1ccccc1-c1nn(CNc2cccc(Cl)c2)c(=S)o1    inactive
Cc1cc2c(cc1Cl)SC1=CC(=O)N(c3ccccc3)C1=NS2(=O)=O    inactive

**Q:** Given CN(C)c1ccc(N2Cc3ccccc3OC3=C2C(=O)c2c(O)ccc(O)c2C3=O)cn1 , state the outcome it received in this test.
**A:** inactive

**Q:** Given CCN(CC)CCCC(C)Nc1cnc(C(=O)Nc2ccc(Cl)c3cccnc23)cn1 (stereo not drawn) , state the outcome it received in this test.
**A:** inactive

**Q:** Given CC1=C(C(=O)Nc2ccc(F)c(Cl)c2)C(c2ccccc2Cl)NC(=S)N1 (stereo not drawn) , state the outcome it received in this test.
**A:** inactive

**Q:** Given CC1=C(C)C(=O)O[C@@H]([C@](C)(O)[C@]2(O)CC[C@@]3(O)[C@@H]4C[C@H]5O[C@]56[C@@H](O)C=CC(=O)[C@]6(C)[C@H]4CC[C@]23C)C1 , state the outcome it received in this test.
**A:** active

**Q:** Given COc1ccc2c(c1)c(-c1ccc(-c3cn(S(=O)(=O)c4ccccc4)c4ccc(OC)cc34)s1)cn2S(=O)(=O)c1ccccc1 , state the outcome it received in this test.
**A:** inactive

**Q:** Given COC(=O)NC1C(C)OC(OC2C/C=C(/C)C3C=CC4C(OC5CC(OC6CC(O)C(OC7CC(O)C(OC)C(C)O7)C(C)O6)C(O)C(C)O5)C(C)CC(C)C4C3(C)/C(O)=C3\C(=O)OC4(CC(C)C(CO)=CC4/C=C\2C)C3=O)CC1(C)[N+](=O)[O-] (stereo not drawn) , state the outcome it received in this test.
**A:** inactive

* * *

Test system: SW-620 colon
Test: NCI tumour cell line growth inhibition, 48 h
Observed Property: TGI (µM)
Form entry: value (µM) — number only.

**Q:** Fill in: TGI of Cc1cc(C)nc(NS(=O)(=O)c2ccc(Nc3nncc(=O)n3N)cc2)n1 is ___
**A:** 44.2

**Q:** Fill in: TGI of CN(C)c1ccc(N2Cc3ccccc3OC3=C2C(=O)c2c(O)ccc(O)c2C3=O)cn1 is ___
**A:** 0.586

**Q:** Fill in: TGI of COc1cc(NS(C)(=O)=O)ccc1Nc1c2ccc(Cl)cc2nc2c(OC)cccc12 is ___
**A:** 2.17

**Q:** Fill in: TGI of CC(C)(C)NC(C1=CC(C)(C)c2ccccc2C1=O)c1ccccc1 (stereo not given) is ___
**A:** 2.92

**Q:** Fill in: TGI of C=CCc1cc(-c2cc(CC=C)c(O)c(CN(CCCl)CCCl)c2)cc(CN(CCCl)CCCl)c1O is ___
**A:** 27.7

**Q:** Fill in: TGI of Cc1ccc(CC(=O)Nc2ccc(NC(=O)/C=C/NC(=O)/C=C/c3ccc(-c4ccccc4)cc3)cc2C(=O)c2ccccc2)cc1 is ___
**A:** 3.44

**Q:** Fill in: TGI of CC1=C[C@H]2c3c(c(O)c(O)c4oc5c(C)cccc5c(=O)c34)[C@H](c3cc(O)c(O)c4oc5c(C)cccc5c(=O)c34)[C@H]2C(C)(C)C1 is ___
**A:** 10

**Q:** Fill in: TGI of CC1=NN(c2cccc(Cl)c2)C2(SCC(=O)N2c2nc3ccccc3s2)/C1=C\c1ccc(Cl)cc1 (stereo not given) is ___
**A:** 27.9

**Q:** Fill in: TGI of COc1ccc(N2C(=O)C3c4[nH]c5ccccc5c4C4CCCCCCCCCCC4C3C2=O)cc1 (stereo not given) is ___
**A:** 18.7

**Q:** Fill in: TGI of CC(C)/C(Cl)=N\OC(=O)Nc1cccc(F)c1 is ___
**A:** 5.5

* * *

Tested on: NCI-H226 lung
Test: NCI tumour cell line growth inhibition, 48 h
Observed Property: log10(TGI) (log10 of the value in µM)
Scale: log10; quantity: TGI; unit before log: µM

For orientation, consider the following solved cases.
COc1ccc(N(CC(=O)NCCC[Te]c2ccccc2)C(=O)c2ccccc2)cc1    0.86
COc1ccc2c(c1)C(=O)/C(=C/c1cccc(OCC(=O)Nc3nc4c(s3)CCCC4)c1)O2    1.62
CCC(C)(C)C(=O)O[C@H]1C[C@@H](C)C=C2C=C[C@H](C)[C@H](CC[C@@H]3C[C@@H](O)CC(=O)O3)[C@H]21    0.97
CC(C)CNC(=O)CCc1cccc2c1oc1c(CCN)cccc12    1.53

**Q:** Fill in: log10(TGI) of COc1cc(/C=C2/C(=O)N(C(=O)OC(C)C)C(Cc3cc(OC)c(OC)c(C)c3OC)C(=O)N2Cc2ccccc2)c(OC)c(C)c1OC (stereo not given) is ___
**A:** 1.48

**Q:** Fill in: log10(TGI) of COc1cc(NS(C)(=O)=O)ccc1Nc1c2ccc(Cl)cc2nc2c(OC)cccc12 is ___
**A:** -0.08

**Q:** Fill in: log10(TGI) of O=c1[nH]nc(Cc2ccccc2)n1/N=C/c1c(O)ccc2ccccc12 is ___
**A:** 1.87

**Q:** Fill in: log10(TGI) of CC1=C[C@H]2c3c(c(O)c(O)c4oc5c(C)cccc5c(=O)c34)[C@H](c3cc(O)c(O)c4oc5c(C)cccc5c(=O)c34)[C@H]2C(C)(C)C1 is ___
**A:** 0.78

* * *

Measured TGI accompanies every entry in the list below.
Tested on: SK-OV-3 ovarian
Test: NCI tumour cell line growth inhibition, 48 h
Form entry: value (µM) — number only.

O=C(CN1CCN(c2ncnc3ccccc23)CC1)Nc1ccc(Cl)cc1C(=O)c1ccccc1Cl    36.6

// next entry
**Q:** Request body: readout TGI, system SK-OV-3 ovarian, query CC[C@@H](C(=O)[C@@H](C)[C@@H](O)[C@H](C)[C@@H]1O[C@@H]([C@@H](CC)C(=O)O)CC[C@@H]1C)C1O[C@]2(C=CC(=O)[C@]3(CC[C@@](C)([C@H]4CC[C@](O)(CC)[C@H](C)O4)O3)O2)[C@H](C)C[C@@H]1C (stereo not given in full) . Return the value.
**A:** 16

* * *

Test system: ACHN renal
Test: NCI tumour cell line growth inhibition, 48 h
Measured TGI accompanies every entry in the list below.

For orientation, consider the following solved cases.
CC1=C(C(=O)Nc2ccc(F)c(Cl)c2)C(c2ccccc2Cl)NC(=S)N1 (stereo unspecified)    > 50 µM
COc1cc(O)cc(/C=C/c2ccc(O)cc2)c1    31.2 µM
COc1cc(N(CCC#N)CCC#N)ccc1/C=C1\SC(=S)NC1=O    > 100 µM
CC(C)=CC1C(COC(=O)c2cc3c(cc2Cl)OCO3)C1(C)C (stereo unspecified)    > 100 µM
COc1cc2c3c(n(CCCCOC(=O)C(F)(F)F)c(=O)c2cc1OC)-c1cc2c(cc1C3=O)OCO2    > 100 µM

**Q:** Fill in: TGI of Cc1ccc(/C(O)=C/c2nc3ccccc3oc2=O)cc1 is ___
**A:** > 100 µM

**Q:** Fill in: TGI of CC1(C)COC(C23C4C5C2C2C3C4C52I)=N1 (stereo unspecified) is ___
**A:** > 100 µM

**Q:** Fill in: TGI of COc1cc(N=CN(C)C)c2ncccc2c1 is ___
**A:** > 100 µM

* * *

Measured TGI accompanies every entry in the list below.
System: U251 CNS
Assay: NCI tumour cell line growth inhibition, 48 h

For orientation, consider the following solved cases.
CC1CN=C(Nc2ccc(F)cc2F)S1 (stereo unspecified)    > 100 µM
O=C(O)CNC(=O)CO/N=C1/C(c2c(O)[nH]c3ccccc23)=Nc2ccccc21    > 100 µM
O=C(/C=C(\O)c1ccc(Cl)cc1)C(=O)N=Nc1c(O)[nH]c2ccc(Br)cc12    > 100 µM
CSc1c(C(=O)Nc2ccc(Cl)cc2)c(N)nn1-c1ccccc1    > 100 µM
COc1ccc(C[C@@H]2Cc3cc(OC)c(OC)cc3CN2C)cc1    > 100 µM

// next entry
**Q:** Request body: readout TGI, system U251 CNS, query N#C[S-].[Nd+3].c1cnc2c(c1)ccc1cccnc12.c1cnc2c(c1)ccc1cccnc12.c1cnc2c(c1)ccc1cccnc12 . Return the value.
**A:** 12.4 µM

* * *

A set of compounds tested on U251 CNS, with measured GI50:

For orientation, consider the following solved cases.
CCN(CC)CCCC(C)Nc1cnc(C(=O)Nc2ccc(Cl)c3cccnc23)cn1 (stereo not drawn)    1.93 µM
CC(=O)N1N=C2/C(=C/c3ccccc3)CC(C)CC2C1c1ccccc1 (stereo not drawn)    11.7 µM

**Q:** Request body: readout GI50, system U251 CNS, query COC(=O)Nc1nc2ccc(Oc3ccc(NC(=O)Nc4cccc(C(=O)O)c4)cc3)cc2[nH]1 . Return the value.
**A:** 7.35 µM
